Where these numbers come from: PubChem BioAssay (NCI)

# TGI per entry
# System: IGROV1 ovarian
# test method notes: NCI tumour cell line growth inhibition, 48 h

Cc1cc(C2CC(O)C(CO)O2)c(Br)cc1Br (stereo not drawn) :: > 100 µM
CN1CCN(CCCn2c3c(sc4ncccc43)c(=O)n3nnc(-c4ccccc4)c23)CC1 :: 4.22 µM
CCCC(CCC(=O)O)(CCC(=O)O)[N+](=O)[O-] :: > 100 µM
O=C1/C(=C/c2ccc(C(=O)O)cc2)CNC/C1=C\c1ccc(C(=O)O)cc1 :: > 100 µM
O=S1(=O)OCCOS(=O)(=O)C1C1c2ccccc2-c2ccccc21 :: > 100 µM

Problem: Lookup: TGI / IGROV1 ovarian / O=C(Nc1ccc(-c2cn3ccccc3n2)cc1)c1cc(Br)ccc1O
Solution: > 100 µM

Problem: Next compound up: COc1ccc(C2CC(=O)Nc3c2c(C)nn3-c2nc3ccccc3[nH]2)cc1OC (stereo not drawn)
Solution: > 93.3 µM

Problem: Next compound up: COc1cc2c(cc1OC)C/C(=N\O)c1cc(OC)c(OC)cc1/C=C\2
Solution: 72.8 µM
